system.under.test: papain (Carica papaya)
Sequence (P00784 134-345): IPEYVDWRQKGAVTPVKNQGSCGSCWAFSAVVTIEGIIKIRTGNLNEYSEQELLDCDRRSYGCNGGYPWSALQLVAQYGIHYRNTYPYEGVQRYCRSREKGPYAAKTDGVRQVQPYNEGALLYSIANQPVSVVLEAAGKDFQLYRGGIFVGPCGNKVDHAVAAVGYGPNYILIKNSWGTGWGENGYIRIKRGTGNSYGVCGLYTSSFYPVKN
measured.attribute: pIC50
pIC50 here is simply -log10 of the concentration when that concentration is written in mol/L.

Qu. Need pIC50 of "CC(C)C[C@H](NC(=O)[C@H]1O[C@@H]1C(=O)O)C(=O)NCCCCN=C(N)N" , thanks.
Ans. 8.05
